All figures here come from ChEMBL document CHEMBL3351775.

Hi there, I'd appreciate the recorded CC50 at 120 h for every entry that follows.
# EXPERIMENT: Cytotoxicity against mock-infected human MT4 cells after 5 days by MTT assay
# Type: cell-based
Output spec: scalar in µM, unitless text.

[in] Can you look up the measured CC50 at 120 h of "Cc1cc(C#N)cc(C)c1Oc1cc(Nc2ccc(C#N)cc2)ncc1C(=O)NC1CC1" for me?
[out] 231

[in] And for "Cc1cc(C#N)cc(C)c1Oc1cc(Nc2ccc(C#N)cc2)ncc1C(=O)NCCN(C)C" ?
[out] 23.2

[in] Next entry: "Cc1cc(C)c(Oc2cc(Nc3ccc(C#N)cc3)ncc2C(=O)NCC2CC2)c(C)c1"
[out] 30.6

[in] Next up: "Cc1cc(C#N)cc(C)c1Oc1cc(Nc2ccc(C#N)cc2)ncc1C(=O)NCCC#N"
[out] 65.8
